Hello, the source for this data is patent EP2660245A1, in case you need it.

- assay-overview: acute toxicity (LD50) according to the standard method
- test-settings: in vivo
# LD50 per entry

Here's what some known entries look like.
CCN(CC)C(=O)CC(CP(=O)(c1ccccc1)c1ccccc1)C(=O)N(CC)CC (stereo not shown) | > 100 mg/kg
CCCCN(CCCC)C(=O)CC(C(=O)N(CCCC)CCCC)P(=O)(c1cc(C)ccc1C)c1cc(C)ccc1C (stereo not shown) | > 100 mg/kg
CCCCN(CCCC)C(=O)CC(C(=O)N(CCCC)CCCC)P(=O)(c1ccc(OC)cc1)c1ccc(OC)cc1 (stereo not shown) | > 100 mg/kg
CCCCN(CCCC)C(=O)CC(CP(=O)(c1cc(C)ccc1C)c1cc(C)ccc1C)C(=O)N(CCCC)CCCC (stereo not shown) | > 100 mg/kg

LD50 recorded for this compound, CCCCN(CCCC)C(=O)CC(C(=O)N(CCCC)CCCC)P(=O)(CCCC)CCCC (stereo not shown) , is > 100 mg/kg

LD50 recorded for this compound, CCCCN(CCCC)C(=O)CC(C(=O)N(CCCC)CCCC)P(=O)(c1ccccc1C)c1ccccc1C (stereo not shown) , is > 100 mg/kg

LD50 recorded for this compound, CCCCN(CCCC)C(=O)CC(C(=O)N(CCCC)CCCC)P(=O)(c1ccc(N(C)C)cc1)c1ccc(N(C)C)cc1 (stereo not shown) , is > 100 mg/kg
